B1: library; numbered along this chain (parent)
chain: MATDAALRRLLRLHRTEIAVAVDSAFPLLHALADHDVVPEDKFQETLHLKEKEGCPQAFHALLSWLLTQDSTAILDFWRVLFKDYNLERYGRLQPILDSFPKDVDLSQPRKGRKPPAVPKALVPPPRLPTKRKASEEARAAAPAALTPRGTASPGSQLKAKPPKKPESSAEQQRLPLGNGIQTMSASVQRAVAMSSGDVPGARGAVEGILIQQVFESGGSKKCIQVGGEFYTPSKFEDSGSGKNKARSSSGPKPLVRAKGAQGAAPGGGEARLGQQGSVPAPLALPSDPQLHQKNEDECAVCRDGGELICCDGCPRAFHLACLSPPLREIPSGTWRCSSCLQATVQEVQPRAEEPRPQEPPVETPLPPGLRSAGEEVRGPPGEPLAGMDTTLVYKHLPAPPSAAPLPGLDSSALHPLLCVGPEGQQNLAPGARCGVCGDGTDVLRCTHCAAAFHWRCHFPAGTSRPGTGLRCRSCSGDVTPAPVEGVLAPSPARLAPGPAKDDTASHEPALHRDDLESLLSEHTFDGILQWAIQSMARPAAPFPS

- Variants of: B1
- Assay notes: AIRE transcriptional activation functional score (insulin promoter-GFP; nonsense median 0, synonymous median 1) (normalised score); higher = higher AIRE activity (more reporter activation)
- Test conditions: with insulin promoter-GFP reporter in HEK293
Observed property: AIRE transcriptional activation functional score

>>> numeric_result("L122W")
0.871
>>> numeric_result("P126I")
0.105
>>> numeric_result("L122G")
1.29
>>> numeric_result("Q108M")
2.4
>>> numeric_result("Q172L")
1.55
>>> numeric_result("D23K")
-0.339
>>> numeric_result("G267N")
0.868
>>> numeric_result("D70W")
-0.512
>>> numeric_result("V362D")
1.3
>>> numeric_result("M194F")
0.394
>>> numeric_result("T147K")
0.787
>>> numeric_result("L341T")
1.03
>>> numeric_result("G112Y")
0.893
>>> numeric_result("S474K")
0.466
>>> numeric_result("G374I")
1.18
>>> numeric_result("A281D")
0.674
>>> numeric_result("A321I")
1.33
>>> numeric_result("Q293F")
1.1
>>> numeric_result("A429P")
0.614
>>> numeric_result("H35N")
0.76
>>> numeric_result("E376H")
1.36
>>> numeric_result("K83L")
0.753

FYI, the data here is from the supplement of paper PMC12667976.
